# Tested on: PC-3 PIP/flu tumor-bearing mice
# experimental.protocol: Biodistribution studies in PC-3 PIP/flu tumor-bearing mice
# condition.notes: 192 h p.i.
Each entry below carries its reported Lung.
Report the figure in % IA/g without appending any unit label.

Worked cases, Lung given:
>>> quantitative_readout("O=C(O)CCC(NC(=O)NC(CCCCNC(=O)C(Cc1ccc2ccccc2c1)NC(=O)C1CCC(n2cc(CC(NC(=O)CN3CCN(CC(=O)O)CCN(CC(=O)O)CCN(CC(=O)O)CC3)C(=O)NC(CCCCNC(=O)CCCc3ccc(I)cc3)C(=O)O)nn2)CC1)C(=O)O)C(=O)O (stereo not shown) [^177Lu-PSMA-ALB-01, metal not drawn]")
4.12
>>> quantitative_readout("O=C(O)CCC(NC(=O)NC(CCCCNC(=O)C(Cc1ccc2ccccc2c1)NC(=O)C1CCC(CNC(=O)C(CCCCNC(=O)CN2CCN(CC(=O)O)CCN(CC(=O)O)CCN(CC(=O)O)CC2)NC(=O)CC(NC(=O)CC(NC(=O)CCCc2ccc(I)cc2)C(=O)O)C(=O)O)CC1)C(=O)O)C(=O)O (stereo not shown) [^177Lu-PSMA-ALB-05, metal not drawn]")
1.22
>>> quantitative_readout("O=C(O)CCC(NC(=O)NC(CCCCNC(=O)C(Cc1ccc2ccccc2c1)NC(=O)C1CCC(CNC(=O)C(CCCCNC(=O)CN2CCN(CC(=O)O)CCN(CC(=O)O)CCN(CC(=O)O)CC2)NC(=O)CCCCCCC(=O)NC(CCCCNC(=O)CCCc2ccc(I)cc2)C(=O)O)CC1)C(=O)O)C(=O)O (stereo not shown) [^177Lu-PSMA-ALB-04, metal not drawn]")
4.10

Alright, here's another compound for you.
Q. Look up Lung with PC-3 PIP/flu tumor-bearing mice for this compound: O=C(O)CCC(NC(=O)NC(CCCCNC(=O)C(Cc1ccc2ccccc2c1)NC(=O)C1CCC(CNC(=O)C(CCCCNC(=O)CCCc2ccc(I)cc2)NC(=O)CN2CCN(CC(=O)O)CCN(CC(=O)O)CCN(CC(=O)O)CC2)CC1)C(=O)O)C(=O)O (stereo not shown) [^177Lu-PSMA-ALB-03, metal not drawn]
A. 4.17

---

Each entry below carries its reported Tumor-to-liver.
# System: PC-3 PIP/flu tumor-bearing mice
# experimental.protocol: Biodistribution studies in PC-3 PIP/flu tumor-bearing mice
# condition.notes: 24 h p.i.; PC-3 PIP tumor
// print number alone

>>> quantitative_readout("Cc1ccc(CCCC(=O)NCCCCC(NC(=O)CN2CCN(CC(=O)O)CCN(CC(=O)O)CCN(CC(=O)O)CC2)C(=O)NCC2CCC(C(=O)NC(Cc3ccc4ccccc4c3)C(=O)NCCCCC(NC(=O)NC(CCC(=O)O)C(=O)O)C(=O)O)CC2)cc1 (stereo not shown) [^177Lu-PSMA-ALB-06, metal not drawn]")
222
>>> quantitative_readout("Cc1ccc(CCCC(=O)NC(CC(=O)NC(CC(=O)NC(CC(=O)NC(CCCCNC(=O)CN2CCN(CC(=O)O)CCN(CC(=O)O)CCN(CC(=O)O)CC2)C(=O)NCC2CCC(C(=O)NC(Cc3ccc4ccccc4c3)C(=O)NCCCCC(NC(=O)NC(CCC(=O)O)C(=O)O)C(=O)O)CC2)C(=O)O)C(=O)O)C(=O)O)cc1 (stereo not shown) [^177Lu-PSMA-ALB-08, metal not drawn]")
295
>>> quantitative_readout("O=C(O)CCC(NC(=O)NC(CCCCNC(=O)C(Cc1ccc2ccccc2c1)NC(=O)C1CCC(CNC(=O)C(CCCCNC(=O)CCCc2ccc(I)cc2)NC(=O)CN2CCN(CC(=O)O)CCN(CC(=O)O)CCN(CC(=O)O)CC2)CC1)C(=O)O)C(=O)O (stereo not shown) [^177Lu-PSMA-ALB-03, metal not drawn]")
16.1

Alright, here's another molecule for you.
Q. Look up Tumor-to-liver with PC-3 PIP/flu tumor-bearing mice for this molecule: O=C([O-])CN1CCN(CC(=O)[O-])CCN(CC(=O)NCC2CCC(C(=O)N[C@@H](Cc3ccc4ccccc4c3)C(=O)NCCCC[C@H](NC(=O)N[C@@H](CCC(=O)O)C(=O)O)C(=O)O)CC2)CCN(CC(=O)[O-])CC1.[177Lu+3] (stereo partly shown) [^177Lu-PSMA-617, reference compound]
A. 528
